# System: human Factor 7 mRNA
# method-notes: Antisense inhibition of human Factor 7 with short (14-mer) oligonucleotides in HepB3 cells, electroporation 1,000 nM
# Format: cell-based
# condition-description: electroporation, 1,000 nM antisense oligonucleotide, approximately 24 hours, Factor 7 mRNA relative to untreated control cells
Strand notation (5' to 3'): a small letter for the sugar, then the base; units joined by * are phosphorothioate-linked, units joined directly phosphodiester-linked; [ ] holds rarer units or linkages, { } end groups; capitals alone tell only the bases. e = 2'-O-(2-methoxyethyl) (MOE); [5mC] = 5-methylcytosine; d = 2'-deoxy (DNA)
I'd be grateful if you could share measured % Inhibition for these entries.
Report as a plain number; the unit % is understood.

Asked: Supply recorded % Inhibition for 435647 (antisense eA*eG*dA*dT*dA*dT*dA*dG*dG*dA*d[5mC]*dT*eG*eG) [compound 435647] here.
Given back: 0

Asked: State its % Inhibition: 435677 (antisense eG*eT*dG*d[5mC]*dT*d[5mC]*dG*d[5mC]*d[5mC]*d[5mC]*dA*dG*e[5mC]*eA) [compound 435677]
Given back: 60

Asked: Report % Inhibition, nothing else, for this substance: 435668 (antisense eT*eG*d[5mC]*d[5mC]*dA*dT*dG*dG*dA*d[5mC]*dA*d[5mC]*eT*e[5mC]) [compound 435668]
Given back: 75

Asked: Provide one value: measured % Inhibition of 435803 (antisense eG*eA*dG*dA*dA*dT*dT*dG*d[5mC]*d[5mC]*d[5mC]*dA*eG*eG) [compound 435803]
Given back: 0

Asked: Please supply the value of reported % Inhibition for the item 435786 (antisense eA*eG*dG*dT*dG*dA*d[5mC]*d[5mC]*d[5mC]*dG*dT*dG*eA*eG) [compound 435786]
Given back: 68

Asked: Look up and state reported % Inhibition for 435650 (antisense e[5mC]*e[5mC]*dG*dG*d[5mC]*d[5mC]*d[5mC]*dT*d[5mC]*dG*dA*dA*eG*eG) [compound 435650]
Given back: 6

Asked: Please report % Inhibition for the following substance: 435736 (antisense eA*eT*dG*d[5mC]*dA*dT*dG*dG*dT*dG*dA*dT*eG*e[5mC]) [compound 435736]
Given back: 50

Asked: Answer with reported % Inhibition of 435774 (antisense eG*eT*d[5mC]*d[5mC]*d[5mC]*dA*dG*dG*dG*dA*dA*dG*eG*e[5mC]) [compound 435774]
Given back: 17

Asked: # return recorded % Inhibition for entry 435844 (antisense eT*eG*dG*d[5mC]*d[5mC]*dA*dG*dT*dG*dG*d[5mC]*d[5mC]*eT*e[5mC]) [compound 435844]
Given back: 30

Asked: Indicate the recorded % Inhibition value for this substance: 435816 (antisense eT*e[5mC]*d[5mC]*dA*dA*dA*dG*dG*dA*d[5mC]*dA*dA*eG*eG) [compound 435816]
Given back: 4

Asked: Supply measured % Inhibition of 435658 (antisense eT*e[5mC]*dA*d[5mC]*dT*dG*d[5mC]*dA*dG*dT*dA*d[5mC]*eT*eG) [compound 435658] in your reply.
Given back: 60

Asked: Tell me % Inhibition reported for 435798 (antisense eA*eG*d[5mC]*d[5mC]*dA*dG*dA*d[5mC]*dT*dT*dT*d[5mC]*e[5mC]*eT) [compound 435798]
Given back: 54

Asked: State, in one line, measured % Inhibition of 435652 (antisense e[5mC]*eT*dG*dG*dT*d[5mC]*dA*dT*d[5mC]*d[5mC]*dT*dT*eG*eT) [compound 435652]
Given back: 48

Asked: State, in one line, measured % Inhibition of 435726 (antisense eG*e[5mC]*dA*dA*dT*dG*dA*dA*dG*dG*d[5mC]*dA*eG*eA) [compound 435726]
Given back: 26

Asked: Give % Inhibition for 435832 (antisense eT*eG*d[5mC]*dT*d[5mC]*dA*dG*dA*d[5mC]*d[5mC]*dT*dG*eG*e[5mC]) [compound 435832]
Given back: 70

Asked: For the substance 435686 (antisense e[5mC]*eA*dG*dT*dG*dA*dG*dG*dA*d[5mC]*d[5mC]*dA*e[5mC]*eG) [compound 435686] , give its measured % Inhibition value.
Given back: 31

Asked: Please list % Inhibition recorded for the substance 435659 (antisense eT*eA*d[5mC]*d[5mC]*d[5mC]*d[5mC]*dT*d[5mC]*dG*dT*dG*dG*e[5mC]*eA) [compound 435659]
Given back: 18

Asked: Tell me its % Inhibition given 435799 (antisense e[5mC]*eT*dG*dG*dT*d[5mC]*d[5mC]*d[5mC]*d[5mC]*dA*dT*d[5mC]*eT*eG) [compound 435799] as the entry.
Given back: 33
